Each recorded value in this set is attributed to the supplement of paper PMC10567573.

Below: a set of entries, each annotated with reported protein stability index.
B1: ANKRD9 (parent)
chain: VGAAGSARQELLGDRPRWQRLLGE

variants of: B1; experiment: protein stability index of a GFP-peptide fusion (GPS, HEK-293T) (PSI 1-6); higher = more stable; details: c terminus: a fixed tail appended;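 note: lentivirally expressed fusions sorted by FACS into six bins by GFP to DsRed ratio, PSI derived from sequencing read proportions per bin multiplied by bin number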
quantityKind: protein stability index

[[record]]
mutant = "R8S"
result = 3.47

[[record]]
mutant = "R15Q"
result = 3.96

[[record]]
mutant = "V1R"
result = 2.75

[[record]]
mutant = "W18E"
result = 4.45

[[record]]
mutant = "E24G"
result = 3.2

[[record]]
mutant = "R17N"
result = 3.29

[[record]]
mutant = "A7R"
result = 3.08

[[record]]
mutant = "L11E"
result = 4.13

[[record]]
mutant = "R8D"
result = 3.53

[[record]]
mutant = "A7I"
result = 3.49

[[record]]
mutant = "A7M"
result = 3.87

[[record]]
mutant = "A7S"
result = 2.93

[[record]]
mutant = "A3Q"
result = 3

[[record]]
mutant = "R8F"
result = 2.5

[[record]]
mutant = "R20D"
result = 1.25

[[record]]
mutant = "S6I"
result = 2.27

[[record]]
mutant = "G5N"
result = 2.9

[[record]]
mutant = "L21N"
result = 3.71

[[record]]
mutant = "R15H"
result = 4.05

[[record]]
mutant = "P16K"
result = 3.68

[[record]]
mutant = "G5D"
result = 2.48

[[record]]
mutant = "D14F"
result = 2.12

[[record]]
mutant = "E10W"
result = 1.76

[[record]]
mutant = "V1H"
result = 3.33

[[record]]
mutant = "G13K"
result = 3.39

[[record]]
mutant = "S6T"
result = 3.01

[[record]]
mutant = "E24P"
result = 2.75

[[record]]
mutant = "A4P"
result = 3.39

[[record]]
mutant = "L21E"
result = 4.67

[[record]]
mutant = "Q9D"
result = 3.7

[[record]]
mutant = "R8C"
result = 3.02

[[record]]
mutant = "E24I"
result = 2.27

[[record]]
mutant = "W18G"
result = 5.32

[[record]]
mutant = "E10C"
result = 2.75

[[record]]
mutant = "A7W"
result = 2.53

[[record]]
mutant = "G23Q"
result = 3.4

[[record]]
mutant = "R8L"
result = 2.92

[[record]]
mutant = "G5W"
result = 2.9

[[record]]
mutant = "W18L"
result = 4.36

[[record]]
mutant = "E24S"
result = 2.77

[[record]]
mutant = "L11Q"
result = 3.8

[[record]]
mutant = "A4E"
result = 2.91

[[record]]
mutant = "G23V"
result = 2.78

[[record]]
mutant = "Q19D"
result = 2.83

[[record]]
mutant = "R20H"
result = 2.52

[[record]]
mutant = "Q19I"
result = 2.98

